Cited source: patent US12466813B2

measuredOn: RING1B-BMI1 (Homo sapiens)
Sequence (Q99496 whole entry): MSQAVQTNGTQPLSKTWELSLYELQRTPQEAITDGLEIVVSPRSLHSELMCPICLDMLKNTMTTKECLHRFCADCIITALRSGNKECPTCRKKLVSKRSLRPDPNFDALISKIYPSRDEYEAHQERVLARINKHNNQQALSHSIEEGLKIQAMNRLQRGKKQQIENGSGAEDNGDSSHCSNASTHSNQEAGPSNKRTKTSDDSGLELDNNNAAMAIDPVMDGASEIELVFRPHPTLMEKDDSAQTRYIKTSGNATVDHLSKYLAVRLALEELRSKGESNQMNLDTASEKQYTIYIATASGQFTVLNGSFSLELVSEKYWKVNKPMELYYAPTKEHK
Sequence (P35226 whole entry partner): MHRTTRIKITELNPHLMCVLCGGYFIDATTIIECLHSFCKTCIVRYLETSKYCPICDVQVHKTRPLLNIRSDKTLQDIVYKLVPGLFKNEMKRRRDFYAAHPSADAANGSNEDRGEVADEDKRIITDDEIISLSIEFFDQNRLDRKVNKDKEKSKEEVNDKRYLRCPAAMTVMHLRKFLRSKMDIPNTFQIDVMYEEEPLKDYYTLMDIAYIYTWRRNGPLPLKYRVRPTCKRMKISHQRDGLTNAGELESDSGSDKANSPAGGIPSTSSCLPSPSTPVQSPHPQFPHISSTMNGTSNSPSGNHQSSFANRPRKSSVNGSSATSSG
protocolText: KD classes of Table A (direct binding to Ring1B-Bmi1)
cond: class given in Table A
Readings of Kd for the listed molecules

molecule	measuredOn	Kd
O=C(O)c1ccc(-c2cccc3[nH]ncc23)[nH]1 [compound 126]	RING1B-BMI1 (Homo sapiens)	> 100 µM
CC(C)c1c(-c2cc(C(F)(F)F)cc3[nH]ccc23)[nH]c(C(=O)O)c1-c1c(Cl)ccc2[nH]ccc12 [compound 10]	RING1B-BMI1 (Homo sapiens)	< 20 µM
CCc1c(-c2cccc3[nH]ncc23)[nH]c(C(=O)O)c1-c1ccc(OC)cc1Cl [compound 91]	RING1B-BMI1 (Homo sapiens)	50 to 100 µM
COc1cc(-c2c(C(=O)O)[nH]c(-c3cc(F)cc4[nH]ccc34)c2C(C)C)c2cc(C(=O)O)[nH]c2c1 [compound 50]	RING1B-BMI1 (Homo sapiens)	< 20 µM

###

Each record here notes measured Kd.
measuredOn: RING1B-BMI1 (Homo sapiens)
protocolText: KD classes of Table A (direct binding to Ring1B-Bmi1)
cond: class given in Table A
experimentalEndpoint: Kd

mol	measuredOn	experimentalEndpoint	resultValue
CC(C)c1c(-c2cc(F)cc3[nH]ccc23)[nH]c(C(=O)O)c1-c1ccnc2[nH]c(-c3ccccc3Cl)cc12	RING1B-BMI1 (Homo sapiens)	Kd	< 20 µM
CC(C)c1c(-c2cc(F)cc3[nH]ccc23)[nH]c(C(=O)O)c1-c1cccc2[nH]c(C(=O)Nc3nccs3)cc12	RING1B-BMI1 (Homo sapiens)	Kd	< 20 µM
COc1ccc(-c2c(C(=O)O)[nH]c(-c3cc(F)cc4[nH]ccc34)c2C(C)C)c(C)c1	RING1B-BMI1 (Homo sapiens)	Kd	< 20 µM
O=C(O)c1ccc(-c2ccccc2Oc2ccccc2)[nH]1	RING1B-BMI1 (Homo sapiens)	Kd	> 100 µM
CCc1c(-c2cccc3c2ccn3C)[nH]c(C(=O)O)c1-c1ccc(F)c(C)c1	RING1B-BMI1 (Homo sapiens)	Kd	> 100 µM
Cc1ccc2[nH]ccc2c1-c1c(C(=O)O)[nH]c(-c2cc(F)cc3[nH]ccc23)c1C(C)C	RING1B-BMI1 (Homo sapiens)	Kd	< 20 µM
Cc1cc2c(-c3c(C(=O)O)[nH]c(-c4cc(F)cc5[nH]ccc45)c3C(C)C)ccnc2[nH]1	RING1B-BMI1 (Homo sapiens)	Kd	< 20 µM
COc1cc(-c2c(C(=O)O)[nH]c(-c3cc(F)cc4[nH]ccc34)c2C(C)C)c2cc[nH]c2c1	RING1B-BMI1 (Homo sapiens)	Kd	< 20 µM

###

Reported Kd values follow for various compounds
measuredOn: RING1B-BMI1 (Homo sapiens)
protocolText: KD classes of Table A (direct binding to Ring1B-Bmi1)
cond: class given in Table A

compound	Kd
CC(CO)c1c(-c2cccc3[nH]ccc23)[nH]c(C(=O)O)c1-c1cccc2[nH]ccc12 (centres unmarked)	< 20 µM
O=C(O)c1cc(-c2ccccc2)c(-c2cccc3[nH]ccc23)[nH]1	> 100 µM
Nc1ccccc1-c1ccc(C(=O)O)[nH]1	> 100 µM
O=C(O)c1ccc(-c2ccc(-c3ccccc3)cc2)s1	> 100 µM
CCc1c(-c2cccc3[nH]ccc23)[nH]c(C(=O)O)c1-c1ccc(OC)cc1Cl	< 20 µM
O=C(O)c1ccc(-c2cccc(OCC3CC3)c2)[nH]1	> 100 µM
CSCc1ccc2[nH]ccc2c1-c1c(C(=O)O)[nH]c(-c2cc(F)cc3[nH]ccc23)c1C(C)C	< 20 µM
CCc1cc(-c2c(C(=O)O)[nH]c(-c3cc(F)cc4[nH]ccc34)c2C(C)C)c2cc[nH]c2c1	< 20 µM
